- Target Of Assay: Xenopus homologue of SAPK2a (Xenopus laevis)
- Sequence (P47812 whole entry): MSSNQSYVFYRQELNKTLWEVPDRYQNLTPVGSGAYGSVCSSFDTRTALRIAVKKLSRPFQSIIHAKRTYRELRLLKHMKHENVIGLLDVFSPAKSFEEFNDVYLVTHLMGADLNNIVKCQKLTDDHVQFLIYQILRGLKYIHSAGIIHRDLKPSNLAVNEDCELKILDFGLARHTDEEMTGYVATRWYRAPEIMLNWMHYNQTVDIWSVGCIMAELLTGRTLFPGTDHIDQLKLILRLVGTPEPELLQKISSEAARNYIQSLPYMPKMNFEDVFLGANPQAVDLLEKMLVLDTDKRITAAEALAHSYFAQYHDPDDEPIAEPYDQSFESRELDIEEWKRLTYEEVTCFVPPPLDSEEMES
pIC50: −log10 of the molar value.
Metric: pIC50

Query: What value of pIC50 on Xenopus homologue of SAPK2a (Xenopus laevis) does Oc1ccc(-c2nc(-c3ccncc3)c(-c3ccc(F)cc3)[nH]2)cc1 have?
Response: 6.22 to 6.52
